- targetEntity: LRRK2 WT (Homo sapiens, UniProt Q5S007)
- Construct: purchased Life Technologies PR8604B
- Sequence (Q5S007 whole entry): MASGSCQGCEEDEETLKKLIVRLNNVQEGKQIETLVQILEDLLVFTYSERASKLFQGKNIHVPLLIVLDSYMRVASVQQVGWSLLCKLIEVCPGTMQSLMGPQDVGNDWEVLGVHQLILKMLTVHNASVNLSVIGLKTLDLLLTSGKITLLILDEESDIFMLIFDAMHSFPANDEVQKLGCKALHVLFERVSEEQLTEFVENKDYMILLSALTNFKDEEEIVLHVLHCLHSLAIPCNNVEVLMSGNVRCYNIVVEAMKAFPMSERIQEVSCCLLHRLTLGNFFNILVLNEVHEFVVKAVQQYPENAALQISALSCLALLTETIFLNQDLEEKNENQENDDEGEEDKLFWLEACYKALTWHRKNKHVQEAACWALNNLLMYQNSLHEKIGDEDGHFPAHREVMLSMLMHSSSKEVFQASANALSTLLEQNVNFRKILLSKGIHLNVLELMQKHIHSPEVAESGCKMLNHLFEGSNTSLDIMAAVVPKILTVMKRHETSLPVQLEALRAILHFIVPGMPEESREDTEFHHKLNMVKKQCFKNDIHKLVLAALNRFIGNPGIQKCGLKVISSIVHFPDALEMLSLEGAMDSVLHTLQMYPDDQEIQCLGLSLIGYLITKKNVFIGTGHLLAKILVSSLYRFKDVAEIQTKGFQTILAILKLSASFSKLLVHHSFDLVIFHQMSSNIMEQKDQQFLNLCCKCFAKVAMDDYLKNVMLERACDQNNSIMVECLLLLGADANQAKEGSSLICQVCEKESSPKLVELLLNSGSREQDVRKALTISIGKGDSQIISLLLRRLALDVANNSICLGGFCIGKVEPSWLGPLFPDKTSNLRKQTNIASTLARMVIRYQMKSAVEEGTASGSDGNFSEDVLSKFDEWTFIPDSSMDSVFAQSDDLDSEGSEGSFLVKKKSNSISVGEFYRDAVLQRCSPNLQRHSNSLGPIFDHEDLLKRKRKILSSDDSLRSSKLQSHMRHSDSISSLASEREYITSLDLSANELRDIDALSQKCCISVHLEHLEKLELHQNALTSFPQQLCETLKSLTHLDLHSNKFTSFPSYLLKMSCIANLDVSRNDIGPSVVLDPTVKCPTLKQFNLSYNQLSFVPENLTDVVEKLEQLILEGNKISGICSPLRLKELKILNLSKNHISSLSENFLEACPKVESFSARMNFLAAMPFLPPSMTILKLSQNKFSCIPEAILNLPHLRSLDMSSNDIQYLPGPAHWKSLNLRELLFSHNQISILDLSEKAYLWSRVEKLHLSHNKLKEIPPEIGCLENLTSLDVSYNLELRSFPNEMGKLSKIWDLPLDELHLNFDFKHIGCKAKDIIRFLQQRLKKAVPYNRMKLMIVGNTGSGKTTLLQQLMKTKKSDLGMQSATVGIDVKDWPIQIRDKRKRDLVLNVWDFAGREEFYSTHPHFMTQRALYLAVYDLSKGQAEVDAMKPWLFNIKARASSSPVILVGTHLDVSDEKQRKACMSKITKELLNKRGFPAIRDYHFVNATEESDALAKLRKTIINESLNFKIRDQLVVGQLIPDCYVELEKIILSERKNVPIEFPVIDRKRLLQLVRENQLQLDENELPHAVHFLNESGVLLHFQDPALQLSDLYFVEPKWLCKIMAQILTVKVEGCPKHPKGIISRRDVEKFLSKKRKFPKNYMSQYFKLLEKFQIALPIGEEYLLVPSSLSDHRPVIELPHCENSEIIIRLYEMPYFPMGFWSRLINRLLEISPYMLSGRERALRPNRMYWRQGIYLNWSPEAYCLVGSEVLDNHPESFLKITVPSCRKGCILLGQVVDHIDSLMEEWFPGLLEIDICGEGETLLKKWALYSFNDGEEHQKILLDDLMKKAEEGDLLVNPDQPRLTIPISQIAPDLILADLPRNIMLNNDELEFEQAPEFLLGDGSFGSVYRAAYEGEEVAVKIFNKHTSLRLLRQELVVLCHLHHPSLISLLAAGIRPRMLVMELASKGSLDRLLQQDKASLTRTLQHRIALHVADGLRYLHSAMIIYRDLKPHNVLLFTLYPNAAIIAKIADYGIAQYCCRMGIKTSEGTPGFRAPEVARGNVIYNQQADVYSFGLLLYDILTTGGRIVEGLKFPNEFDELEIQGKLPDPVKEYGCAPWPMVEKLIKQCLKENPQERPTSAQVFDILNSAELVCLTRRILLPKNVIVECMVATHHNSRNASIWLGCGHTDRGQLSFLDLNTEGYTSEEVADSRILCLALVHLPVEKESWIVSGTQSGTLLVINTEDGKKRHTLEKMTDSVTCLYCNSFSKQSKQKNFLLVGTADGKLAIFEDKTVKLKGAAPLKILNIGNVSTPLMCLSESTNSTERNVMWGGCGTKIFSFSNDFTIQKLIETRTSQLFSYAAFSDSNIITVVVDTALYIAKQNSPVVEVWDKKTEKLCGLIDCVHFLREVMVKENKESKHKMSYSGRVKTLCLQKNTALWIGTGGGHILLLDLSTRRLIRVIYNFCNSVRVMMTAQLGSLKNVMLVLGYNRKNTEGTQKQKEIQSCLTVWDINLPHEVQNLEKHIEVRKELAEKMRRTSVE
- testSummary: LRRK2 Kinase Activity Assay (LanthaScreen TR-FRET), wild type
- Type: biochemical
- experimentalContext: recombinant wild type LRRK2, 25 μM ATP, 400 nM LRRKtide, 60 min; class symbols
pIC50: −log10 of the molar value.
readoutType: pIC50

>  <compound>
N#Cc1ccc2c(c1)CCC[C@@H]2Nc1cc2c(-c3cnco3)n[nH]c2cn1 (single isomer, unassigned) [Example 33, enantiomer 1]

>  <result>
> 7.00

$$$$
>  <compound>
N#Cc1ccc2c(c1)C1(CC1)C[C@@H]2Nc1ccc2[nH]nc(-c3cnco3)c2c1 (single isomer, unassigned) [Example 140, enantiomer 2]

>  <result>
6.00 to 7.00

$$$$
>  <compound>
N#Cc1ccc2c(c1)OCC[C@@H]2Nc1ccc2[nH]nc(-c3cnco3)c2c1 (single isomer, unassigned) [191, enantiomer 2]

>  <result>
> 7.00

$$$$
>  <compound>
N#Cc1ccc2c(c1Cl)CCC[C@@H]2Nc1ccc2[nH]nc(-c3cnco3)c2c1 (single isomer, unassigned) [Example 143, enantiomer 2]

>  <result>
> 7.00

$$$$
>  <compound>
N#Cc1cnc2c(c1C(F)(F)F)CCC[C@@H]2Nc1ccc2[nH]nc(-c3cnco3)c2c1 (single isomer, unassigned) [Example 145, enantiomer 2]

>  <result>
> 7.00

$$$$
>  <compound>
COc1nc2c(cc1C#N)CCC[C@@H]2Oc1ccc2[nH]nc(-c3cnco3)c2c1 (single isomer, unassigned) [179, enantiomer 1]

>  <result>
> 7.00

$$$$

====

Listed below: IC50 values for each entry.
- targetEntity: LRRK2 WT (Homo sapiens)
- Construct: purchased Life Technologies PR8604B
- testSummary: LRRK2 Kinase Activity Assay (LanthaScreen TR-FRET), wild type
- Type: biochemical
- experimentalContext: recombinant wild type LRRK2, 25 μM ATP, 400 nM LRRKtide, 60 min; class symbols
readoutType: IC50

>  <molecule>
N#Cc1ccc2c(c1)CCC[C@H]2Nc1ccc2[nH]nc(-c3cnco3)c2c1 (single isomer, unassigned) [Example 119, enantiomer 1]

>  <readoutType>
IC50

>  <result>
100 to 1000 nM

$$$$
>  <molecule>
N#Cc1cnc2c(n1)CC[C@@H]2Oc1ccc2[nH]nc(-c3cnco3)c2c1 (single isomer, unassigned) [182, enantiomer 2]

>  <readoutType>
IC50

>  <result>
< 100 nM

$$$$
>  <molecule>
N#Cc1ccc2c(c1)CCC[C@@H]2Nc1ccc2[nH]nc(C3=CCCC3)c2c1 (single isomer, unassigned) [Example 65]

>  <readoutType>
IC50

>  <result>
1000 to 10000 nM

$$$$
>  <molecule>
COc1cc(-c2n[nH]c3ccc(N[C@H]4CCc5cc(C#N)ccc54)cc23)ccn1 (single isomer, unassigned) [Example 40, enantiomer 2]

>  <readoutType>
IC50

>  <result>
< 100 nM

$$$$
>  <molecule>
Cc1ncc(-c2n[nH]c3ccc(N[C@@H]4c5ccc(C#N)cc5CC4(F)F)cc23)o1 (single isomer, unassigned) [Example 155, enantiomer 1]

>  <readoutType>
IC50

>  <result>
< 100 nM

$$$$
>  <molecule>
N#Cc1cnc2c(c1)CC[C@@H]2Oc1ccc2[nH]nc(-c3cnco3)c2c1 (single isomer, unassigned) [Example 103, enantiomer 1]

>  <readoutType>
IC50

>  <result>
< 100 nM

$$$$
